Reference source: patent US20250223281A1

- Assayed System: GPR40 (Homo sapiens)
- Construct: expressed in transfected cells; host or cells: HEK293 cells stably expressing GPR40 (Hygromycin selection)
- Sequence (O14842 whole entry): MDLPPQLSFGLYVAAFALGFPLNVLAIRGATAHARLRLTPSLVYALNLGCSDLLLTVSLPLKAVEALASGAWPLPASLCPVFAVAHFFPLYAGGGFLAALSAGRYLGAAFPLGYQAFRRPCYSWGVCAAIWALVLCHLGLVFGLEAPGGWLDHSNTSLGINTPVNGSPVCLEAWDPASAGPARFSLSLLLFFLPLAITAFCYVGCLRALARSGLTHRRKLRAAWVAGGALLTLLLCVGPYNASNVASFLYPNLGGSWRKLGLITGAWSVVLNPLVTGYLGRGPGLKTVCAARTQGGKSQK
- Test Name: IP1 accumulation assay in HEK293 cells stably expressing GPR40
- Type: cell-based
- Applied Conditions: Tables A-1a to A-7b (structure-property relationship); obtained by methods of Biological Example 1
pEC50: −log10 of the molar value.
Observable: pEC50

COc1ccc(C(=O)N(CC(C)(C)CCn2cc(CCCCCCC(=O)NCCN(CCC(=O)NCCN)CCC(=O)NCCN)nn2)c2cccc(C)n2)c(N2CCC(COc3cc([C@@H](CC(=O)O)C4CC4)ccn3)CC2)c1 :: 5.01
COc1ccc(F)c(-c2ccc(COc3cccc([C@@H](CC(=O)O)C4CC4)c3)cc2CC(C)(C)Cn2cc(CCCCCCCCCCCCCCCCCC(=O)NCCN(CCC(=O)NCCN)CCC(=O)NCCN)nn2)c1 :: 8.65
COc1ccc(C(=O)N(CC(C)(C)CCCCCCn2cc(CCCCCCCCC(=O)NCC[N+](C)(CCC(=O)NCCN)CCC(=O)NCCN)nn2)c2cccc(C)n2)c(N2CCC(COc3cc([C@@H](CC(=O)O)C4CC4)ccn3)CC2)c1 :: 8.42
COc1ccc(C(=O)N(CC(C)(C)CCn2cc(CCCCCCCCC(=O)NCC[N+](C)(CCC(=O)NCCN)CCC(=O)NCCN)nn2)c2cccc(C)n2)c(N2CCC(COc3cc([C@@H](CC(=O)O)C4CC4)ccn3)CC2)c1 :: 6.51
COc1ccc(C(=O)N(CC(C)(C)CCn2cc(CCCCCCCCCCCCC(=O)NCC[N+](C)(CCC(=O)NCCN)CCC(=O)NCCN)nn2)c2cccc(C)n2)c(N2CCC(COc3cc([C@@H](CC(=O)O)C4CC4)ccn3)CC2)c1 :: 9.29

a: C[C@H](C(=O)O)[C@H](c1ccc2c(c1)O[C@@H](C1CCN(Cc3cc(-n4cc(CCCCCCCCCCCCCC(=O)NCCN(CCC(=O)NCCN)CCC(=O)NCCN)nn4)ccc3OC(F)(F)F)CC1)CC2)C1CC1
b: COc1ccc(C(=O)N(CC(C)(C)CCCCCCn2cc(CCCCCCCCCCCCCC(=O)NCCN(CCC(=O)NCCN)CCC(=O)NCCN)nn2)c2cccc(C)n2)c(N2CCC(COc3cc([C@@H](CC(=O)O)C4CC4)ccn3)CC2)c1
Lookup: Between a and b , which one has the lower reported pEC50 value? Returns: label corresponding to the selected item.
Found: a
(a: 8.85, b: 10.30)

---

- Assayed System: GPR40 (Homo sapiens)
- Construct: expressed in transfected cells; host or cells: HEK293 cells stably expressing GPR40 (Hygromycin selection)
- Test Name: IP1 accumulation assay in HEK293 cells stably expressing GPR40
- Format: cell-based
- Applied Conditions: IP1 accumulation, HEK293 cells stably expressing GPR40, 2 hours at 37° C., % effect relative to AMG-1638; table of Biological Example 1
- Description: IP1 accumulation assay was used to evaluate the potency of compounds. […] Assay plate was incubated at room temperature for 60 min and then read at 665 nm/615 nm on an Envision plate reader (PerkinElmer). […] Dose curve was fitted and EC50 of each compound was calculated by using XLFit.
pEC50: −log10 of the molar value.
Observable: pEC50

COc1ccc(F)c(-c2ccc(COc3cccc([C@@H](CC(=O)O)C4CC4)c3)cc2CC(C)(C)Cc2cn(CCCCCCCCCC(=O)NCC[N+](C)(CCC(=O)NCCN)CCC(=O)NCCN)nn2)c1 :: 5.98

A: C[C@H](C(=O)O)[C@H](c1ccc2c(c1)O[C@@H](C1CCN(Cc3cc(-n4cc(CCCCCCCCCCC(=O)NCCN(CCC(=O)NCCN)CCC(=O)NCCN)nn4)ccc3OC(F)(F)F)CC1)CC2)C1CC1
B: COc1ccc(C(=O)N(CC(C)(C)CCCCCCn2cc(CCCCCCCCCCC(=O)NCC[N+](C)(CCC(=O)NCCN)CCC(=O)NCCN)nn2)c2cccc(C)n2)c(N2CCC(COc3cc([C@@H](CC(=O)O)C4CC4)ccn3)CC2)c1
C: COc1ccc(C(=O)N(CC(C)(C)CCn2cc(CCCCCCCCCCCCCCC(=O)NCCN(CCC(=O)NCCN)CCC(=O)NCCN)nn2)c2cccc(C)n2)c(N2CCC(COc3cc([C@@H](CC(=O)O)C4CC4)ccn3)CC2)c1
D: COc1ccc(F)c(-c2ccc(COc3cccc([C@@H](CC(=O)O)C4CC4)c3)cc2CC(C)(C)Cc2cn(CCCCCCCCCCCC(=O)NCC[N+](C)(CCC(=O)NCCN)CCC(=O)NCCN)nn2)c1
Lookup: Ascending by pEC50, please. State the ranking by listing the labels in the requested order.
Found: D, A, B, C
(D: 6.48, A: 6.74, B: 8.77, C: 9.48)
